# EXPERIMENT_SUMMARY: inhibitors of the yeast RAM network, pilot screen, dse1pr::URA3 reporter, 5-FOA selection (AID 869);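 note: 0% = DMSO wells with no growth and 100% = 10 µM 1-NA-PP1 with full growth; RAM network block rescues cells from 5-FOA so hits raise OD615 growth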
# RUN_CONDITIONS: S. cerevisiae dse1pr::URA3 5-FOA growth, OD615, 2 d; at 10 µM; hits give high values; strain carries analog-sensitive mutant Cbk1 kinase
Reported inhibition values for the following compounds.
Please give a number only; it is taken to be in %.

So what does the record say about inhibition for CC(=O)COC(=O)c1cccc(N2C(=O)C3C4C=CC(C4)C3C2=O)c1 (stereo not given) ? 1.27

So what does the record say about inhibition for CN1CCN(C(=O)c2cc3c(s2)-c2ccccc2S(=O)(=O)C3)CC1 ? 1.8

So what does the record say about inhibition for CCOc1ccccc1N1C(=O)CC(N(O)c2ccccc2)C1=O (stereo not given) ? 0.17

So what does the record say about inhibition for Cc1cc(-c2ccco2)n(CC(=O)NCCN(C)C)n1 ? 2.31

So what does the record say about inhibition for Cc1ccc(OCCCN(C)C)c(Br)c1 ? 1.03

So what does the record say about inhibition for CC(=O)NC(CCS(C)(=O)=O)C(=O)Nc1cc(C)ccc1C (stereo not given) ? 2.23

So what does the record say about inhibition for CCOc1cc(C(=O)Nc2nnc(C)s2)cc(OCC)c1OCC ? 0.43

So what does the record say about inhibition for Cc1ccc(-c2nn3c(C)nnc3s2)cc1NC(=O)COc1ccc(Cl)cc1 ? 2.17

So what does the record say about inhibition for CCOC(=O)N1CCN(C(=O)Cn2ncc3c2-c2ccccc2OC3)CC1 ? 0.82

So what does the record say about inhibition for Cc1ccc(-c2ccc(CCC(=O)O)n2C(C)C)cc1 ? 2.1

So what does the record say about inhibition for Cc1ccc(-c2cc(C(F)(F)F)n3ncc(C(=O)NCc4ccco4)c3n2)cc1 ? 2.67

So what does the record say about inhibition for CN(C)c1nc(Oc2ccc(C(=O)OCC(=O)Nc3ccccc3)cc2)nc(N(C)C)n1 ? 2.15

So what does the record say about inhibition for CCOC(=O)N1CCN(C(=O)CSc2nc3c([nH]c4ccccc43)c(=O)n2C)CC1 ? 2.34

So what does the record say about inhibition for O=C(C1CC(c2ccc(F)cc2)=NO1)N1CCN(c2ccccc2)CC1 (stereo not given) ? 1.23

So what does the record say about inhibition for Cc1ccc(-n2ncc3c(NCc4ccco4)ncnc32)c(C)c1 ? -0.12

====

Reported viability values for the following compounds.
# EXPERIMENT_SUMMARY: growth suppression of PTEN-deleted HCT116, pilot screen, cell-based, HCT116 clonal line, CellTiter-Glo (AID 824);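 note: 0% = 20 µM Hyamine control and 100% = vehicle cell control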
# RUN_CONDITIONS: 60 h, at 10 µM, hits give low values
Records with an inconclusive call do not appear.
Please give a number only; it is taken to be in %.

1) Cc1nn(-c2ccccc2)c2c1C(c1ccccc1)C(C#N)=C(N)O2 (configuration not stated)
87.8

Now for another entry.
So what does the record say about viability for CCN1CCN(Cc2nc3c(c(=O)n(C)c(=O)n3C)n2Cc2ccccc2Cl)CC1 ? 91.6

====

# EXPERIMENT_SUMMARY: Restrictive medium S. cerevisiae growth inhibition, OD615, pilot screen of yeast lifespan reduction project, restrictive growth control (AID 706);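 note: modified DeaD lifespan yeast strain shifted to restrictive glucose medium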
# RUN_CONDITIONS: OD615, 48 h, at 10 µM, hits give high values
PARAMETER: growth inhibition (%)
Please give a number only; it is taken to be in %.

1. CCOC(=O)c1cnn(CC2CCCCC2)c1N
1.77

So what does the record say about growth inhibition for Cn1c(=O)c2c(nc(SCCN3CCOCC3)n2Cc2ccccc2Cl)n(C)c1=O ? 1.19

So what does the record say about growth inhibition for Cn1c(=O)n(C)c2cc(CN3C(=O)OC(C)(C)C3(C)O)ccc21 (centres undefined) ? 0.365

So what does the record say about growth inhibition for COc1ccc(OC)c2sc(NC(=O)c3ccc(Cl)s3)nc12 ? -10.6

So what does the record say about growth inhibition for O=C(C1=C(O)C(=O)N(CCN2CCOCC2)C1c1ccncc1)c1ccco1 (centres undefined) ? 2.89

So what does the record say about growth inhibition for COC(=O)C1=C(C)N(C)C(C)=C(C(=O)OC)C1c1ccccc1C ? -21.1

So what does the record say about growth inhibition for O=C(OCN1C(=O)c2ccccc2C1=O)c1cccs1 ? -11.2

So what does the record say about growth inhibition for CCC(Sc1nc(C)cc(=O)[nH]1)C(=O)Nc1sc2c(c1C#N)CCCC2 (centres undefined) ? -12.3

So what does the record say about growth inhibition for Cc1ccc(S(=O)(=O)N2CCCC(C(=O)N(Cc3cccs3)C3CC3)C2)cc1 (centres undefined) ? -14.9

So what does the record say about growth inhibition for COC(=O)c1cc(NC2c3ccccc3C(=O)N2c2cccnc2)cc(C(=O)OC)c1 (centres undefined) ? 0.875

====

# EXPERIMENT_SUMMARY: growth suppression of PTEN-deleted HCT116, pilot screen, cell-based, HCT116 clonal line, CellTiter-Glo (AID 824);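 note: 0% = 20 µM Hyamine control and 100% = vehicle cell control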
# RUN_CONDITIONS: 60 h, at 10 µM, hits give low values
Inconclusive results are not listed.
PARAMETER: viability (%)
Please give a number only; it is taken to be in %.

So what does the record say about viability for CC(=O)Nc1ccc(NC(=O)C2CC(=O)N(c3cccc(C)c3C)C2)cc1 (stereo unspecified) ? 91.2

So what does the record say about viability for CCCOc1cccc(C(=O)Nc2cccc(NC(=O)c3ccco3)c2)c1 ? 91.6

So what does the record say about viability for CCCC(=O)c1c(NC)cc(C)oc1=O ? 92.2

====

# EXPERIMENT_SUMMARY: Restrictive medium S. cerevisiae growth inhibition, OD615, pilot screen of yeast lifespan reduction project, restrictive growth control (AID 706);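 note: modified DeaD lifespan yeast strain shifted to restrictive glucose medium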
# RUN_CONDITIONS: OD615, 48 h, at 10 µM, hits give high values
Reported growth inhibition values for the following compounds.
Please give a number only; it is taken to be in %.

So what does the record say about growth inhibition for O=C(CC1NCCNC1=O)OCCCc1ccccc1 (configuration not stated) ? -2.82

So what does the record say about growth inhibition for O=C(NCCCN1CCOCC1)C1CCC(=O)N1CCc1ccccc1 (configuration not stated) ? -7.29

====

# EXPERIMENT_SUMMARY: RAM signaling pathway blockade in yeast – S. cerevisiae, Pdr1DBD-CYC8 efflux-inhibited sensitized strain, primary screen (AID 1298);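 note: 0% = DMSO untreated cells without growth and 100% = 10 µM 1-NA-PP1 full growth; higher means more yeast growth rescued from 5-FOA killing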
# RUN_CONDITIONS: S. cerevisiae cbk1-as DSE1-URA3 strain, 5-FOA growth OD615, 2 d; at 50 µM; hits give high values
PARAMETER: RAM network inhibition (%)
Please give a number only; it is taken to be in %.

1) COc1cccc(NC2=CC(=O)CC(C)(C)C2)c1
1.95
2) O=C(CCCC1=NS(=O)(=O)c2ccccc2N1)N1CCN(c2ccc(Cl)cc2)CC1
0.9

So what does the record say about RAM network inhibition for COc1ccc(OCC(=O)Nc2cccc(C(C)=O)c2)cc1 ? 2.7

So what does the record say about RAM network inhibition for CC(C)Cc1ccc(C#N)c(SCC(N)=O)n1 ? 3.19

So what does the record say about RAM network inhibition for O=C(NC1CCN(Cc2ccccc2)CC1)c1ccccc1F ? -0.41

So what does the record say about RAM network inhibition for CCN(CC)S(=O)(=O)c1ccc(-c2nnco2)cc1 ? 1.46

So what does the record say about RAM network inhibition for COCc1cc(C)nc2sc3c(=O)n(Cc4ccco4)nnc3c12 ? 4.8

So what does the record say about RAM network inhibition for Cc1cc(Nc2cccc(C)c2C)n2nc(C)nc2n1 ? 3.39

So what does the record say about RAM network inhibition for CCc1ccc(C2CC(c3ccc(C)cc3)Nc3nc(N)nn32)cc1 (configuration not stated) ? 8.09

So what does the record say about RAM network inhibition for CN(CCCNC(=O)Cn1cc2c(n1)CCCC2)C1CCCCC1 ? 1.23

So what does the record say about RAM network inhibition for Cc1ccc(Cn2nnc3c(=O)n(CC(=O)c4ccccc4)cnc32)cc1 ? 5.01

So what does the record say about RAM network inhibition for COc1ccc(CNC(=O)c2cnn3c(C(F)F)cc(C)nc23)cc1OC ? 2.31

So what does the record say about RAM network inhibition for CC(=O)Nc1ccc(NC(=O)CCC(=O)NCCO)cc1 ? 5.19

So what does the record say about RAM network inhibition for CS(=O)(=O)Nc1ccc2c3c(cccc13)CC2 ? 7.52

====

# EXPERIMENT_SUMMARY: growth suppression of PTEN-deleted HCT116, pilot screen, cell-based, HCT116 clonal line, CellTiter-Glo (AID 824);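 note: 0% = 20 µM Hyamine control and 100% = vehicle cell control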
# RUN_CONDITIONS: 60 h, at 10 µM, hits give low values
Results filed as inconclusive are left out.
PARAMETER: viability (%)
Please give a number only; it is taken to be in %.

Below, 5 molecules whose answers are already recorded.
1. CN1CCN(S(=O)(=O)c2ccc3c4c(cccc24)C(=O)N3)CC1
96.4
2. Cn1c(NC(=O)c2ccccc2Br)cc(=O)n(C)c1=O
94.5
3. O=C(c1cc2ccccc2cc1OCC(O)CN1CCCCC1)N1CCCCC1 (configuration not stated)
83.5
4. COc1cccc(N2CCN(C(=O)CN(C)S(=O)(=O)c3ccc4c(c3)CCC(=O)N4)CC2)c1
85.5
5. COC(=O)C(C)Sc1nnc(Cc2cc(=O)[nH]c(=O)[nH]2)n1-c1ccc(Cl)cc1 (configuration not stated)
95.6

So what does the record say about viability for c1ccc2c(c1)OCC(c1csc3ncnc(N4CCOCC4)c13)O2 (configuration not stated) ? 75.7

So what does the record say about viability for O=C(NC1CCCCC1)c1ccc(Br)o1 ? 102

So what does the record say about viability for O=C1CC(c2nc3ccccc3[nH]2)CN1c1cccc(C(F)(F)F)c1 (configuration not stated) ? 76.5
